Test system: SET2 (leukemia)
Assay Details: Antiproliferative activity, ATP method, SET2
Type: cell-based
Test Conditions: Homo sapiens, SET-2
Outcome Measure: IC50 (pM)
Numbers only here, please. The scale is pM.

Given item C[C@@H](O)[C@@]12O[C@]13c1cc(O)c4c(c1N[C@H]2C#C/C=C\C#C[C@H]3O)C(=O)c1ccc(N)cc1C4=O , the value recorded as its IC50 is 8

* * *

System: HCT116 (colon)
Assay Details: Antiproliferative activity, ATP method, HCT116
Assay type: cell-based
Test Conditions: Homo sapiens, HCT-116
Outcome Measure: IC50

Given item C[C@@H](O)[C@@]12O[C@]13c1cc(O)c4c(c1N[C@H]2C#C/C=C\C#C[C@H]3O)C(=O)c1ccc(N)cc1C4=O [Compound (IIa), 8-aminouncialamycin] , the value recorded as its IC50 is 7 pM

* * *

Test system: A2780 (ovarian)
Assay Details: Antiproliferative activity, ATP method, A2780
Type: cell-based
Test Conditions: Homo sapiens
Outcome Measure: pIC50
Note on pIC50: it is the negative log10 of concentration, concentration in mol/L.

Given item C[C@@H](O)[C@@]12O[C@]13c1cc(O)c4c(c1N[C@H]2C#C/C=C\C#C[C@H]3O)C(=O)c1ccc(N)cc1C4=O , the value recorded as its pIC50 is 11.52

* * *

System: doxorubicin-resistant ovarian cancer cell line (Adr)
Assay Details: Antiproliferative activity, ATP assay, Adr
Type: cell-based
Test Conditions: Homo sapiens, 72 h
Measured pEC50, listed per entry for reference.
Note on pEC50: it is the negative log10 of concentration, concentration in mol/L.

C[C@@H](O)[C@@]12O[C@]13c1cc(O)c4c(c1N[C@H]2C#C/C=C\C#C[C@H]3O)C(=O)c1ccc(N)cc1C4=O 10.21

Given item C[C@@H](O)[C@@]12O[C@]13c1cc(O)c4c(c1N[C@H]2C#C/C=C\C#C[C@H]3O)C(=O)c1ccccc1C4=O , the value recorded as its pEC50 is 10.07

* * *

Measured pIC50, listed per entry for reference.
System: LS174T (colon)
Assay Details: Antiproliferative activity, ATP method, LS174T
Assay type: cell-based
Test Conditions: Homo sapiens; LS174T cell line; ATP method; read-out: IC50
Note on pIC50: it is the negative log10 of concentration, concentration in mol/L.

Molecule	Study Target	pIC50
COc1cccc2c1C(=O)c1c(O)c3c(c(O)c1C2=O)C[C@@](O)(C(=O)CO)C[C@@H]3O[C@H]1C[C@H](N)[C@H](O)[C@H](C)O1 [Doxorubicin, doxorubicin]	LS174T (colon)	7.95

Given item Nc1ccc(C(=O)Nc2ccc3[nH]c(C(=O)N4C[C@@H](CCl)c5c4cc(O)c4ccccc54)cc3c2)cc1 [Compound A] , the value recorded as its pIC50 is 10.82

* * *

Tested on: H226 lung cancer cells
Assay Details: Antiproliferative activity, ATP assay, H226
Format: cell-based
Test Conditions: Homo sapiens, NCI-H226, 72 h
Measured EC50, listed per entry for reference.
Numbers only here, please. The scale is pM.

# example entries with known answers
Compound	Study Target	Reported Result
C[C@@H](O)[C@@]12O[C@]13c1cc(O)c4c(c1N[C@H]2C#C/C=C\C#C[C@H]3O)C(=O)c1ccc(NCCN)cc1C4=O [Compound (IIc)]	H226 lung cancer cells	986
C[C@@H](O)[C@@]12O[C@]13c1cc(O)c4c(c1N[C@H]2C#C/C=C\C#C[C@H]3O)C(=O)c1ccc(NC(=O)c2ccc(N)cc2)cc1C4=O [Compound (IId)]	H226 lung cancer cells	873
C[C@@H](O)[C@@]12O[C@]13c1cc(O)c4c(c1N[C@H]2C#C/C=C\C#C[C@H]3O)C(=O)c1ccc(N)cc1C4=O [Compound (IIa), 8-aminouncialamycin]	H226 lung cancer cells	1000

Proceed to the following item.
Given item CNc1ccc2c(c1)C(=O)c1c(O)cc3c(c1C2=O)N[C@H]1C#C/C=C\C#C[C@@H](O)[C@@]32O[C@@]12[C@@H](C)O [Compound (IIe), 8-methylaminouncialamycin] , the value recorded as its EC50 is 17400
